Examples of compounds with documented IC50 follow.
- STUDY SYSTEM: TEC (Homo sapiens, UniProt P42680)
- Sequence (P42680 whole entry): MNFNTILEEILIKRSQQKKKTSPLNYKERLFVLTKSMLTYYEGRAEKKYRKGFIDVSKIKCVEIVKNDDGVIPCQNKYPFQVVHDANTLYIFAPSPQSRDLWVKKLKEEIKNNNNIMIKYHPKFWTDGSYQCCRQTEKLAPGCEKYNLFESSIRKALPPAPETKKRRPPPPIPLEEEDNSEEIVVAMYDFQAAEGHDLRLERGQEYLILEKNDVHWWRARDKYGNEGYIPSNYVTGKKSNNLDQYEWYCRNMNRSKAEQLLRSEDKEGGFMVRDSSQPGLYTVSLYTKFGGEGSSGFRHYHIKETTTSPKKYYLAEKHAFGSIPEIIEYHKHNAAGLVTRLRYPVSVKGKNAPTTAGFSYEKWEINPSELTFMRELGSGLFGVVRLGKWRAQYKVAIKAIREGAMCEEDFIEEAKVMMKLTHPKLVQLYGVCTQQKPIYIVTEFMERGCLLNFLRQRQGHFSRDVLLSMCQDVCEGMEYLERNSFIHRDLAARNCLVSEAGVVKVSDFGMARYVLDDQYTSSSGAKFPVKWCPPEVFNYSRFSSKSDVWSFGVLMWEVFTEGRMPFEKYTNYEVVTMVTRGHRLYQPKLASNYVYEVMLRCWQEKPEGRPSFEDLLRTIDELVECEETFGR
- ASSAY: Inhibition of a panel of kinases, in vitro HotSpot kinase assay: TEC
- Format: biochemical
- PARTICULARS: D-compounds panel data; 1 μM ATP

| COMPOUND | IC50 |
| --- | --- |
| C[C@@H]1[C@H](NC(=O)c2ccc(C(O)C(F)(F)F)cc2)CCCN1c1cnc(C(N)=O)c(Nc2cnn(C)c2)n1 (single isomer, unassigned) [Example D-250] | ≤ 10 nM |
| C[C@@H]1[C@H](NC(=O)c2ccc(C3CC3)cc2)CCCN1c1cnc(C(N)=O)c(Nc2cc(C3CCN(C)CC3)ns2)n1 | ≤ 10 nM |
| CN1CCC(n2cc(Nc3nc(N4CCC[C@@H](n5ccc6cc(C7CC7)ccc6c5=O)C4)cnc3C(N)=O)cn2)CC1 | 10 to 100 nM |
| Cc1cc(Nc2cc(N3CCC[C@@H](NC(=O)N(C)C)[C@H]3C)cnc2C(N)=O)sn1 | 1000 to 10000 nM |
| C[C@@H]1[C@H](NC(=O)c2ccc(C3CC3)cc2)CCCN1c1cnc(C(N)=O)c(Nc2cnn(CC3CCOCC3)c2)n1 | ≤ 10 nM |
| Cn1cc(Nc2nc(N3CCC(NC(=O)c4ccc(C5CC5)cc4)C(O)C3)cnc2C(N)=O)cn1 (single isomer, unassigned) [Example D-28] | > 10000 nM |
| C[C@@H]1[C@H](NC(=O)N(C)C)CCCN1c1cnc(C(N)=O)c(Nc2ccc(N3CCC(F)(F)CC3)cc2)n1 | 10 to 100 nM |
| C[C@@H]1[C@H](NC(=O)c2ccc3c(c2)C(C)(C)CO3)CCCN1c1cnc(C(N)=O)c(Nc2cnn(C)c2)n1 | ≤ 10 nM |
| C[C@@H]1[C@H](NC(=O)c2ccc(C(C)(C)C)s2)CCCN1c1cnc(C(N)=O)c(Nc2cnn(C)c2)n1 | 10 to 100 nM |
| C[C@@H]1[C@H](NC(=O)c2ccc(N(C)C)cn2)CCCN1c1cnc(C(N)=O)c(Nc2cnn(C)c2)n1 | ≤ 10 nM |
| C[C@@H]1[C@H](NC(=O)c2ccc(C3CC3)cc2F)CCCN1c1cnc(C(N)=O)c(Nc2ccc(S(C)(=O)=O)cc2)n1 | 100 to 1000 nM |
| Cn1cc(Nc2nc(N3CCC[C@@H](NC(=O)c4ccc(C(C)(C)O)cc4)C3)nnc2C(N)=O)cn1 | 10 to 100 nM |
| COCCN(C)c1ccc(C(=O)N[C@@H]2CCCN(c3cnc(C(N)=O)c(Nc4cnn(C)c4)n3)[C@@H]2C)cc1 | ≤ 10 nM |
